Test system: 786-0 renal
ASSAY_EXPLANATION: NCI tumour cell line growth inhibition, 48 h

COMPOUND | TGI
O=C(CC1C=CCS1(=O)=O)NCc1ccccc1 (stereo unspecified) | > 100 µM
CCC(C(=O)c1ccccc1)C(CCCC(=O)Nc1c(C)cccc1C)N=O (stereo unspecified) | > 100 µM
COc1cc2c(cn1)[nH]c1ccccc12 | > 100 µM
CCOC(=O)C(C(=O)OCC)=C1NC2(c3ccccc3Nc3ccc(C)cc32)C(C(=O)OC)S1 (stereo unspecified) | > 100 µM
O=C1CS/C(=N\S(=O)(=O)c2ccc(N3N=C4c5ccccc5CC4C3c3ccc(Cl)cc3)cc2)N1c1ccccc1 (stereo unspecified) | > 100 µM
NC(=O)CC(N=C1C(=O)OC(C(O)CO)C1=NC(CC(N)=O)C(=O)O)C(=O)O (stereo unspecified) | > 100 µM
c1ccc2c(c1)CC1COc3ccccc3C1O2 (stereo unspecified) | > 100 µM
Nc1ccc(Oc2ccc(C34CC5CC6C3CC3CC4C(C5)C6(c4ccc(Oc5ccc(N)c(O)c5)cc4)C3)cc2)cc1O | 14.9 µM
COc1ccccc1-c1cc(=O)c2ccc(OC)c(OC)c2o1 | > 100 µM
Cn1c(=O)c(Oc2ccccc2)cc2cnc(NC3CCOCC3)nc21 | > 25 µM
COc1ccc(/C=C/NC=O)cc1 | > 100 µM
